SYSTEM: Voltage-gated inwardly rectifying potassium channel KCNH2 (Homo sapiens) (UniProt Q12809)
Sequence (Q12809 whole entry, looked up): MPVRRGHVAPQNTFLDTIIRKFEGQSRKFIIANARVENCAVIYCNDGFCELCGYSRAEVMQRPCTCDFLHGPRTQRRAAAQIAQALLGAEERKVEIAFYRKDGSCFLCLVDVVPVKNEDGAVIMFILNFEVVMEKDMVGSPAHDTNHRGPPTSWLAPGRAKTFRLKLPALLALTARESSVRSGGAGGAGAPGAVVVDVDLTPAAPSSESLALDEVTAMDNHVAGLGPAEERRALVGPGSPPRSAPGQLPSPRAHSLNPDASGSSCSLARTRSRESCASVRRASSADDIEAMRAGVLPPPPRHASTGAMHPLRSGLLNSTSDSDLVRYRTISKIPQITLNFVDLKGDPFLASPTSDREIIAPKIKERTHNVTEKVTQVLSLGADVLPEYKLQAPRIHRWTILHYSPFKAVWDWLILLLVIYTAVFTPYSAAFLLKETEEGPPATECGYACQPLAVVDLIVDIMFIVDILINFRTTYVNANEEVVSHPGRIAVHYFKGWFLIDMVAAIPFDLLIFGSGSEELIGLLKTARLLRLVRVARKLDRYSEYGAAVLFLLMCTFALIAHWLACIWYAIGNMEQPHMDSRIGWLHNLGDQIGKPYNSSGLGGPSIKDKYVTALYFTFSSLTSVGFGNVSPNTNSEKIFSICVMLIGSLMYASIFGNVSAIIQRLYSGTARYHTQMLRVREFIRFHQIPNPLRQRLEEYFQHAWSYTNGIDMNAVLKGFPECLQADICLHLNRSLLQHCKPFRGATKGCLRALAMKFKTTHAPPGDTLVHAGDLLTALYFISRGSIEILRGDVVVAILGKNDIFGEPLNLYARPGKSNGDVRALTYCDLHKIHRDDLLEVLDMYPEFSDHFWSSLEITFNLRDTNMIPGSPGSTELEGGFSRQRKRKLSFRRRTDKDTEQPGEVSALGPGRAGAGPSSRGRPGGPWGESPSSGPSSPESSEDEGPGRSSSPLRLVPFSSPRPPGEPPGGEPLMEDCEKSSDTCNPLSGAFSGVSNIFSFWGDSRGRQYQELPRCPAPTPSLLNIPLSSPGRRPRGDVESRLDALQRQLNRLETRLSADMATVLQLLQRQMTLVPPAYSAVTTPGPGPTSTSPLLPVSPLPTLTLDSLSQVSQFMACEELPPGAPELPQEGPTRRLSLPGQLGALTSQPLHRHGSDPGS
ASSAY_TEXT: Human Ether-a-go-go-Related Gene (hERG) channel small molecule antagonists: fluorescence cell-based qHTS assay (AID 1671200); note: nearly all actives have a fitted effect of over 50% in size
COND: hERG-U2OS cells, FluxOR thallium flux fluorescence; series mostly up to 76.8 µM
Records with an inconclusive call do not appear. Activity calls are given as the source filed them. Calls come from the whole dose curve; as a rule, active = well fitted inhibition curve with a large enough effect in the repeat runs; inconclusive = weak or mixed curves; inactive = flat fitted curve, though single readings scatter.
Parameter call: string, one of t for active, f for inactive

Query: In this assay, the call recorded for N#CSc1ccc(N)c([N+](=O)[O-])c1 was what?
Reply: f

Query: In this assay, the call recorded for COc1cccc(N)c1 was what?
Reply: f

Query: In this assay, the call recorded for CCN(C(=O)c1cc(C)cc(OC[C@H](C)Nc2ccncc2)c1)C(C)C was what?
Reply: t

Query: In this assay, the call recorded for COc1cc(/C=C/C(=O)O[C@H]2CC[C@]34C[C@]35CC[C@]3(C)[C@@H]([C@H](C)CCC=C(C)C)CC[C@@]3(C)[C@@H]5CC[C@H]4C2(C)C)ccc1O was what?
Reply: f

Query: In this assay, the call recorded for CC(C)=CCOc1ccc(/C=C/C(=O)c2ccc(OCC=C(C)C)cc2OCC(=O)O)cc1 was what?
Reply: f

---

ASSAY_TEXT: qHTS assay to identify small molecule antagonists of the retinoid-related orphan receptor gamma (ROR-gamma) signaling pathway - cell viability counter screen (AID 1159520); note: nearly all actives have a fitted effect of over 50% in size; note: potency is the fitted concentration of half-maximal effect
COND: Tet-on RORgamma CHO cells viability, ATP luminescence, 16 h; series mostly up to 92.4 µM
Records with an inconclusive call do not appear. Calls of active or inactive are those of the source. Calls follow the shape of the dose curve; as a rule, active = well fitted cell-killing curve with a large enough effect in the repeat runs; inconclusive = weak or mixed curves, or effect the other way; inactive = no such curve, though single readings can be large or run the other way.
PROPERTY_NAME: Potency

Solved entries (count: 5):
Query: I would be grateful if you could share the reported Potency for O=S1(=O)CC(Cl)(Cl)C(Cl)(Cl)C1 .
Reply: 6.11 µM (active)

Query: I would be grateful if you could share the reported Potency for CCOc1ccc2nc3cc(N)ccc3c(N)c2c1 .
Reply: inactive

Query: I would be grateful if you could share the reported Potency for Cc1ccc2oc(CN(Cc3ccccc3)C(=O)Nc3c(F)cc(F)cc3F)c(-c3ccc(Cl)cc3)c2c1 .
Reply: inactive

Query: I would be grateful if you could share the reported Potency for Cc1cc(N)c(S(=O)(=O)O)cc1Cl .
Reply: inactive

Query: I would be grateful if you could share the reported Potency for Oc1cccc2cc3cccc(O)c3c(O)c12 .
Reply: inactive

Next:
Query: I would be grateful if you could share the reported Potency for COCCCC/C(=N\OCCN)c1ccc(C(F)(F)F)cc1 .
Reply: inactive

---

ASSAY_TEXT: qHTS assay to identify small molecule agonists of the vitamin D receptor (VDR) signaling pathway - cell viability counter screen (AID 743224); note: nearly all actives have a fitted effect of over 50% in size; note: potency is the fitted concentration of half-maximal effect
COND: VDR-bla HEK293T viability, CellTiter-Glo luminescence, 16 h; series mostly up to 62.6 µM
Records with an inconclusive call do not appear. Activity calls are given as the source filed them. Calls follow the shape of the dose curve; as a rule, active = well fitted cell-killing curve with a large enough effect in the repeat runs; inconclusive = weak or mixed curves, or effect the other way; inactive = no such curve, though single readings can be large or run the other way.
PROPERTY_NAME: Potency

Query: I would be grateful if you could share the reported Potency for C[C@@H](NCCCc1cccc(C(F)(F)F)c1)c1cccc2ccccc12 .
Reply: 29.8 µM (active)

Query: I would be grateful if you could share the reported Potency for CCCCCCCCS(=O)C(C)Cc1ccc2c(c1)OCO2 (stereo not drawn) .
Reply: 50 µM (active)

Query: I would be grateful if you could share the reported Potency for CCOc1ccc2nc3cc(N)ccc3c(N)c2c1 .
Reply: inactive

Query: I would be grateful if you could share the reported Potency for O=C1c2ccccc2Cc2ccccc21 .
Reply: inactive

Next:
Query: I would be grateful if you could share the reported Potency for CCc1cc(SCc2sc(-c3ccc(C(F)(F)F)cc3)nc2CN2CCN(c3ccc(OC)cc3)CC2)ccc1OCC(=O)O .
Reply: 19.5 µM (active)

Query: I would be grateful if you could share the reported Potency for CCCCCCCCCCCC(=O)NCCCN(C)C .
Reply: 21.9 µM (active)

Query: I would be grateful if you could share the reported Potency for Oc1cc2ccccc2c2ccccc12 .
Reply: 2.45 µM (active)

Query: I would be grateful if you could share the reported Potency for CS(=O)(=O)CCNCc1ccc(-c2ccc3ncnc(Nc4ccc(OCc5cccc(F)c5)c(Cl)c4)c3c2)o1 .
Reply: 29.8 µM (active)

Query: I would be grateful if you could share the reported Potency for Cc1cc(O)c2ccccc2c1O .
Reply: 7.5 µM (active)

Query: I would be grateful if you could share the reported Potency for CCCCCCCCNC(C)C(O)c1ccc(SC(C)C)cc1 (stereo not drawn) .
Reply: 13.3 µM (active)

Query: I would be grateful if you could share the reported Potency for O=C(Nc1cccc([N+](=O)[O-])c1)c1cc2ccccc2cc1O .
Reply: 1.23 µM (active)

Query: I would be grateful if you could share the reported Potency for Oc1ccc(C2(c3ccc(O)cc3)CC3CC2C2CCCC32)cc1 (stereo not drawn) .
Reply: 23.6 µM (active)

Query: I would be grateful if you could share the reported Potency for Clc1ccc2n[nH]nc2c1 .
Reply: inactive

Query: I would be grateful if you could share the reported Potency for Nc1c2ccccc2nc2ccccc12 .
Reply: inactive

Query: I would be grateful if you could share the reported Potency for CN(C)[C@@H]1C(=O)C(C(N)=O)=C(O)[C@@]2(O)C(=O)C3=C(O)c4c(O)cccc4C[C@H]3C[C@@H]12 .
Reply: inactive

Query: I would be grateful if you could share the reported Potency for CN(C)c1ccc(SC#N)cc1 .
Reply: inactive

Query: I would be grateful if you could share the reported Potency for COc1cccc2c1C(=O)c1c(O)c3c(c(O)c1C2=O)C[C@@](O)(C(=O)CO)C[C@@H]3O[C@H]1C[C@H](N)[C@H](O[C@@H]2CCCCO2)[C@H](C)O1 .
Reply: inactive

Query: I would be grateful if you could share the reported Potency for N=C1N=C(N)c2cc3ccccc3cc21 .
Reply: 49 µM (active)
